# test_system: High affinity choline transporter 1 (Homo sapiens)
# Sequence (Q9GZV3 whole entry): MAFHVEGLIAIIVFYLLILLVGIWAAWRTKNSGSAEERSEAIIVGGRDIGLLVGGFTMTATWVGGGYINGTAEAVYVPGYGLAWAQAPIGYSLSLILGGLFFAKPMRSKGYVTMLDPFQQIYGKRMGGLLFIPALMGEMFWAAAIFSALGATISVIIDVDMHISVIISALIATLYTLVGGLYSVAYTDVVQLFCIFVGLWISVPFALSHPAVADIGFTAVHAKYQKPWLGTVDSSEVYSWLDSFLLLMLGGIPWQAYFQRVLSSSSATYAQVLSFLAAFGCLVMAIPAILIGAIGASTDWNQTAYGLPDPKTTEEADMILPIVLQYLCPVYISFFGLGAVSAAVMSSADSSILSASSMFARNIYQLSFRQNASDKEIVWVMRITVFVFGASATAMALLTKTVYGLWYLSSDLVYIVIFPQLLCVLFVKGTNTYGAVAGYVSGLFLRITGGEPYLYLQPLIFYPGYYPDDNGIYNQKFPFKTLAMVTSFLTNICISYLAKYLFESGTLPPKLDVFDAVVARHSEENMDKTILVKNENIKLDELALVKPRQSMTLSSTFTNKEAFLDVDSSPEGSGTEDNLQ
# protocol_notes: CHT inhibitors, dose response, cell-based, 5-point CRC, membrane potential dye (AID 504840)
# Format: functional
The source made the active and inactive calls. No rule for the calls is given here.
property: IC50

Known IC50 results, listed for orientation:
                                   molecule  property            recorded_value
0  C/C(=N\NS(=O)(=O)c1ccc(Cl)c([N+](=O)[O-])c1)c1cc2ccccc2o1      IC50          4.37 µM (active)
1          Cc1ccc[n+](CC(=O)c2ccc(Br)cc2)c1      IC50  0.0775 µM (inconclusive)

QUERY: Given N#CC(C#N)=c1ccc2c(c1)N1C3=C(CCCC3)CC3CCCCC31N=2 (stereo not given) , state its recorded IC50.
RESULT: 11 µM (active)

QUERY: Lookup CCCCn1c(=O)[nH]c(=O)c2c1nc(Cn1ncc(Cl)c(Cl)c1=O)n2CCC
RESULT: 12.6 µM (active)

QUERY: Lookup Cc1ccc(C(=O)CSc2nnc(-c3ccco3)n2C)cc1
RESULT: 9.62 µM (active)
